Values from PubChem BioAssay AID330

Exercise: state measured T/C for each of the compounds provided.
Tested on: P388 leukemia ip, CD2F1 mice, survival T/C
assay notes: NCI In Vivo Anticancer Drug Screen. Data for tumor model P388 Leukemia (intraperitoneal) in CD2F1 (CDF1) mice
settings: endpoint: median survival time; dose: 100.0 mg/kg/injection; schedule: Q04DX002 (ip); vehicle: Klucel (hydroxypropylcellulose) (HPC); higher = longer survival
Inconclusive results and toxic doses are left out.

The cases that follow already have their T/C on record.
COC1=CC(=O)C2CC=C(C)C3CC(=O)OC1C23C (stereo not given) | 100 % of control
Cc1ccc(/C2=C(\c3ccc(C)cc3)N(c3ccccc3)CCCCN2c2ccccc2)cc1 | 99 % of control
COC(=O)C1=C(C(=O)OC)C(=Nc2ccccc2)c2ccccc2C1=O | 100 % of control
S=C(N/N=C\c1nc2ccccc2c2ccccc12)Nc1ccc(Br)cc1 | 93 % of control
Cn1c(=O)[nH]c(=O)c2nc(-c3ccccc3)cnc21 | 105 % of control
NC(Cc1ccccc1)=S=O | 97 % of control

Each compound below has a recorded value; state its T/C.
1. O=C(O)c1ccnc2nc[nH]c12
2. Cc1cccc(=O)[n-]1.Cc1cccc(=O)[n-]1.Cc1cccc(=O)[n-]1.Cc1cccc(=O)[n-]1.[Cr+2].[Cr+2]
3. NNC(=O)C1CC2CCCCC2CC1O (stereo not given)
4. CCOC1(C2(O)CCCCC2)CC(C)=NO1 (stereo not given)

Ans:
1. 100 % of control
2. 90 % of control
3. 101 % of control
4. 104 % of control

====

System: P388 leukemia ip, CD2F1 mice, survival T/C
assay notes: NCI In Vivo Anticancer Drug Screen. Data for tumor model P388 Leukemia (intraperitoneal) in CD2F1 (CDF1) mice
settings: endpoint: median survival time; dose: 200.0 mg/kg/injection; schedule: Q01DX005 (ip); vehicle: saline with Tween-80; higher = longer survival
Inconclusive results and toxic doses are left out.
measure: T/C

O=c1cc2c(n[nH]1)-c1ccccc1C2 | 96 % of control

Each compound below has a recorded value; state its T/C.
1. Cc1cc(C)c(C#N)c(SSC(Cl)(Cl)Cl)n1
2. C/C(N=NC(=S)N1CCCCCC1)=C1\C=CC=CN1O
3. C1COCCCOCCCOCCCC2(CCCOCCCOC1)CO2
4. CC(C)CN1CC(=O)N2CCCC(c3ccccc3)N2C(=O)C1 (centres undefined)
5. N#CC1SC(C#N)C(c2ccc(Cl)cc2)OC1c1ccc(Cl)cc1 (centres undefined)

Ans:
1: 91 % of control; 2: 110 % of control; 3: 109 % of control; 4: 112 % of control; 5: 104 % of control

Each compound below has a recorded value; state its T/C.
1. CC1CC(C)/C(=N/NC(N)=S)C(C(O)CC2CC(=O)NC(=O)C2)C1 (centres undefined)
2. NS(=O)(=O)OCCCCCCCOS(N)(=O)=O
3. Cc1ccc(C(O)(c2ccc(C)cc2)C2(O)CCCCC2)cc1
4. COC(=O)c1cc(=O)nc(N/N=C/c2cc(OC)ccc2OC)s1

Ans:
1: 104 % of control; 2: 117 % of control; 3: 101 % of control; 4: 95 % of control

Each compound below has a recorded value; state its T/C.
1. CCOC(=O)/C(Nc1ccc(C(=O)OCC)cc1)=C1\COc2nc(N)[nH]c(=O)c2N1
2. OC(ON=C1CCCCC1)c1ccc2c(c1)OCO2 (centres undefined)
3. COC(=O)C1=CC(=O)N2CCN=C2S1
4. NNC(=O)C(=O)N/N=C(/CC1(O)C(=O)Nc2ccccc21)c1ccc([N+](=O)[O-])cc1 (centres undefined)
5. O=c1[nH]c(-c2cccnc2)nnc1-c1ccc(Cl)cc1
6. CC1CCCN2C(=O)CN(CCc3ccccc3)CC(=O)N12 (centres undefined)
7. CC1(C)OCC(C2OC3OC(C)(C)OC3C2NN)O1 (centres undefined)
8. O=C1C(=O)N(c2ccccc2)[C@]2(c3ccccc3)C1=C(c1ccccc1)N(c1ccccc1)C(=O)N2c1ccccc1

Ans:
107 % of control
107 % of control
90 % of control
90 % of control
96 % of control
100 % of control
100 % of control
88 % of control

Each compound below has a recorded value; state its T/C.
1. CCN(CC)CCNc1cccc2oc3ccc(O)cc3c(=O)c12
2. C=CCOc1cc2c(cc1C(C)c1ccc(OCC)c(C)c1)OCO2 (centres undefined)
3. Cc1cc(=O)n(-c2ccc(S(=O)(=O)Nc3nccs3)cc2)c(C)c1C(=O)O
4. CC(=O)Nc1cccc2c1CCCC2
5. CN1N=Nc2ccccc2NC1=O
6. c1ccc(-c2nc3ccccc3c3ccccc23)cc1

Ans:
["108 % of control", "106 % of control", "100 % of control", "102 % of control", "91 % of control", "102 % of control"]

====

Tested on: P388 leukemia ip, CD2F1 mice, survival T/C
assay notes: NCI In Vivo Anticancer Drug Screen. Data for tumor model P388 Leukemia (intraperitoneal) in CD2F1 (CDF1) mice
settings: endpoint: median survival time; dose: 200.0 mg/kg/injection; schedule: Q01DX005 (ip); vehicle: saline with Tween-80; higher = longer survival
Experimental: The antitumor activity of compounds was measured in mice bearing transplantable tumors. Survival or tumor size were measured and the results are expressed as the measurement made in the treated group (T) divided by the measurement made in the vehicle treated control group (C). The tumor model used in this assay is P388 Leukemia (intraperitoneal) in CD2F1 (CDF1) mice
Toxic doses and inconclusive results are not listed.
measure: T/C

NS(=O)(=O)c1ccc(N=NC2C(=O)N(C(=O)CC(=O)Nc3ccc(C(=O)O)cc3)N=C2c2ccccc2)cc1 (configuration not stated) | 90 % of control
O=C(O)CC1C=CC2C=CC1C=C2 (configuration not stated) | 99 % of control
CCOC(=O)c1cc(Br)c(=O)n(C)c1 | 89 % of control
CC(C)=C(C#C[Si](C)(C)C)OS(=O)(=O)C(F)(F)F | 101 % of control
CN1CCC(O)(c2ccccc2)C(O)C1 (configuration not stated) | 90 % of control
CCOC(=O)/N=C(/NC(=O)OCC)N1CCN(c2ccnc3cc(Cl)ccc23)CC1 | 91 % of control
CC(=O)c1nn(-c2ccccc2)c(=Nc2ccccc2)cc1C | 98 % of control
COC(=O)C1(c2ccccc2)OP2(N(C)C)(OC1(C(=O)OC)c1ccccc1)N(C)CCN2C (configuration not stated) | 105 % of control

Each compound below has a recorded value; state its T/C.
1. c1ccc(C2SCC3(CCCCC3)CS2)cc1
2. c1ccc2c(-c3ccncc3)c3c(ccc4ccccc43)cc2c1
3. c1ccc(C2=NN=C(c3ccccc3)N(c3ccccc3)N2)cc1
4. CCCCCNCC(=O)N1CCCC1C(=O)OC(C)(C)C (configuration not stated)
5. CCN(CC)CCCNCc1cc(-c2ccccc2)nc2cc(Cl)ccc12
6. C=C(C)CNC(=O)C(C)O (configuration not stated)

Ans:
1: 98 % of control; 2: 89 % of control; 3: 97 % of control; 4: 103 % of control; 5: 100 % of control; 6: 99 % of control

Each compound below has a recorded value; state its T/C.
1. CCOC(=O)c1csc(-c2ccc(COC(=O)c3ccccc3)o2)n1
2. O=C1c2ccccc2C(=O)c2c1c(Cl)cc1c(=O)c3cc(Cl)cc(Cl)c3[nH]c21
3. CC(C)(Nc1ccccc1)C(=O)OC(C)(C)C(=O)Nc1ccccc1
4. Cc1cn(C2CC(O)C(C(=O)Nc3ccc(C(=O)CCl)cc3)O2)c(=O)[nH]c1=O (configuration not stated)
5. CCOC(=O)C1CC1C1=C(C)c2cc3[n-]c(cc4nc(cc5[n-]c(cc1n2)c(C)c5CCC(=O)OC)C(CCC(=O)OC)=C4C)c(C)c3C1CC1C(=O)OCC.[Zn+2] (configuration not stated)
6. CCCCC(CC)CN=Cc1c(O)c(O)c(C(C)C)c2cc(C)c(-c3c(C)cc4c(C(C)C)c(O)c(O)c(C=NCC(CC)CCCC)c4c3O)c(O)c12 (configuration not stated)
7. CCC(/C=C/c1ccccc1)=N\Nc1ccc(Cl)c(Cl)c1

Ans:
89 % of control
92 % of control
91 % of control
109 % of control
89 % of control
86 % of control
91 % of control

Q: Kindly state the measured T/C obtained for O=C(CSc1nccc(=O)[nH]1)c1ccccc1 with P388 leukemia ip, CD2F1 mice, survival T/C.
Ans: 100 % of control

====

Tested on: P388 leukemia ip, CD2F1 mice, survival T/C
assay notes: NCI In Vivo Anticancer Drug Screen. Data for tumor model P388 Leukemia (intraperitoneal) in CD2F1 (CDF1) mice
settings: endpoint: median survival time; dose: 200.0 mg/kg/injection; schedule: Q01DX005 (ip); vehicle: saline; higher = longer survival
Procedure: The antitumor activity of compounds was measured in mice bearing transplantable tumors. Survival or tumor size were measured and the results are expressed as the measurement made in the treated group (T) divided by the measurement made in the vehicle treated control group (C). The tumor model used in this assay is P388 Leukemia (intraperitoneal) in CD2F1 (CDF1) mice
Toxic doses and inconclusive results are not listed. Square brackets hold non-standard residues; d marks the D form. Peptide text beside a SMILES is read from it. Abu = CC[CH](N)C(=O)O
Exercise: state measured T/C for each of the compounds provided.

The cases that follow already have their T/C on record.
Cn1ncc2c(N(CCO)CCO)ncnc21 | 95 % of control
O=S(=O)(Nc1ccccn1)c1ccc(NC2OC(CO)C(O)C(O)C2O)cc1 (centres undefined) | 103 % of control
CC(=O)NC1C(Nc2ccc(S(=O)(=O)Nc3nccc(C)n3)cc2)OC(CO)C(O)C1O (centres undefined) | 92 % of control

Each compound below has a recorded value; state its T/C.
1. CC1OC(=O)C(C)C1=O (centres undefined)
2. CCC(N)C(=O)NC(C(N)=O)C(C)C (centres undefined) (H-[Abu]-Val-NH2; configuration not given here)
3. CCOC(=O)C1CCCCC12OCCO2 (centres undefined)
4. CC1(CCl)CC1(Cl)Cl (centres undefined)
5. COC(=O)C1C(NC(C)(C)C)CCN1C(C)=O (centres undefined)

Ans:
["113 % of control", "104 % of control", "95 % of control", "104 % of control", "89 % of control"]

Each compound below has a recorded value; state its T/C.
1. CN/N=C(/C)C(=O)O
2. C=C(CC(O)c1ccccc1)C(=O)Nc1ccccc1OC (centres undefined)
3. C[n+]1ccccc1-c1ccc[n+](CCCCC[n+]2cccc(-c3cccc[n+]3C)c2)c1
4. CCN(CC)CCCC(C)Nc1cc(-c2ccccc2)nc2cc(Cl)ccc12 (centres undefined)
5. OC1CCC(O)C1 (centres undefined)
6. CCCCCCCCCCC1OCN2CCCCC12 (centres undefined)

Ans:
1. 99 % of control
2. 100 % of control
3. 107 % of control
4. 116 % of control
5. 98 % of control
6. 118 % of control
